- Tested System: Protein smoothened (Homo sapiens)
- Measurement Description: Binding affinity to recombinant human Flag-6 x His-tagged Smo expressed in human HEK293T cells assessed as reduction in BODIPY-Cyclopamine binding by measuring fluorescence intensity at 30 uM incubated for 2 to 4 hrs by fluorescence microscopic competitive binding analysis relative to control
- Assay type: cell-based
- Set-up: scale not given: the % may be the effect or the level left
- Recorded Conditions: time 2-4 hrs
Assay Metric: Activity (%)

[
  {
    "Given Smiles": "C[C@@H]1CCN=C([C@@H](C)[C@H]2CC[C@H]3[C@@H]4CC=C5C[C@@H](O)CC[C@]5(C)[C@H]4CC[C@]23C)C1=O",
    "Activity / %": 58.7
  },
  {
    "Given Smiles": "C[C@H]1CC[C@@H]2[C@@H](C)[C@H]3[C@H](C[C@H]4[C@@H]5CC=C6C[C@@H](O[C@@H]7O[C@H](CO)[C@@H](O)[C@H](O)[C@H]7O[C@@H]7O[C@@H](C)[C@H](O)[C@@H](O)[C@H]7O)CC[C@]6(C)[C@H]5CC[C@]34C)N2C1",
    "Activity / %": 45.1
  },
  {
    "Given Smiles": "C[C@H]1CCC([C@H](C)[C@H]2CC[C@H]3[C@@H]4CC=C5C[C@@H](O)CC[C@]5(C)[C@H]4CC[C@]23C)=NC1",
    "Activity / %": 53.2
  }
]
